Each recorded value in this set is attributed to patent US20240199587A1.

pIC50: −log10 of the molar value.
Recorded pIC50 values (MAGL (Homo sapiens, UniProt Q99685)) are given below.
assay metric: pIC50

I. O=C(N1CC(c2ccc(OC(F)(F)F)c(F)c2)C1)N1CC2(CC(n3cnc(C4CC4)n3)C2)C1 [Example 36]
II. CC(C)(C)c1nc(-c2ccc(C(=O)N3CC4(CC(n5cnc(C#N)n5)C4)C3)cc2)no1 [Example 20]
Prompt line: Which gives the smaller pIC50 number: I or II ? Response format: the label of the selected entry.
Response line: II

* * *

Sequence of the target: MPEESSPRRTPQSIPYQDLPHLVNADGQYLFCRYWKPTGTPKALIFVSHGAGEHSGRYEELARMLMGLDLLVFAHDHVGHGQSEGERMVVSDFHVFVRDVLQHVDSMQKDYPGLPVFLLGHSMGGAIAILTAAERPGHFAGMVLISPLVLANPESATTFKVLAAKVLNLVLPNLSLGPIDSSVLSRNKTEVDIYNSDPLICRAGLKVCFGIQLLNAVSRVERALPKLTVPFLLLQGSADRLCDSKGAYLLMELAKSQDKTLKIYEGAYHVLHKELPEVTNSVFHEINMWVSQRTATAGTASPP
pIC50: −log10 of the molar value.
assay metric: pIC50

Example results:
compound	pIC50
CC(C)(C)c1nc(-c2ccc(C(=O)N3CC4(CC(n5cnc(Cl)c5)C4)C3)cc2)no1 [Example 159]	6.50
CC(C)(C)c1nnc(-c2ccc(C(=O)N3CC4(CC(n5ccc(C6CC6)n5)C4)C3)cc2)o1 [Example 169]	6.18
O=C(N1C[C@H]2CC(Oc3ccc(F)cc3Cl)C[C@H]2C1)N1CC2(CC(n3cnnc3C3CC3)C2)C1 (mixture of isomers) [Example 178]	6.81

P. O=C(N1CC(OCc2cccc(S(=O)(=O)C(F)(F)F)c2)C1)N1CC2(CC(n3cnc(C4CC4)n3)C2)C1 [Example 498]
Q. O=C(N1CC2(CCN(Cc3ccc(C(F)(F)F)cn3)CC2)C1)N1CC2(CC(n3cnc(C4(O)CC4)n3)C2)C1 [Example 391]
Prompt line: Given the listed records, identify the one among P and Q with higher pIC50. Write down the label of the entry you select.
Response line: P
(P: 8.77, Q: 7.85)

1. O=C(N1CC(OCc2ccc(OC(F)(F)F)cc2F)C1)N1CC2(CC(n3cnc(C4CC4)n3)C2)C1 [Example 75]
2. O=C(O)c1ccc(F)c(S(=O)(=O)N2CC3(CN(C(=O)N4CC5(CC(n6cnc(C7CC7)n6)C5)C4)C3)C2)c1 [Example 327]
Prompt line: Given the listed items, does 1 or 2 have the lesser reported pIC50? Return value: the label identifying the chosen record.
Response line: 2
(2: 6.21, 1: 8.57)

* * *

- target system: UniProtKB Q99685
assay metric: IC50 (nM)

Worked set:
structure smiles	unit of measurement	IC50
O=C(N1CC(c2cn(C3(C(F)(F)F)COC3)nn2)C1)N1CC2(CC(n3cnc(C4CC4)n3)C2)C1	nM	85.5
O=C(N1CC2(CC(n3cnc(C4CC4)n3)C2)C1)N1CC2(C1)CN(S(=O)(=O)c1ccc(F)c(F)c1)C2	nM	34.4

A. CC(C)(C)CS(=O)(=O)N1CC2(CN(C(=O)N3CC4(CC(n5cnc(C6CC6)n5)C4)C3)C2)C1
B. CS(=O)(=O)c1cccc(CC2CC3(C2)CN(C(=O)N2CC4(CC(n5cnc(C6CC6)n5)C4)C2)C3)c1
C. CC(C)(C)c1nc(-c2ccc(C(=O)N3CC4(CC(n5nccc5C5CC5)C4)C3)cc2)no1
D. O=C(N1CC(c2ccc(-c3ccc(Cl)cc3Cl)cn2)C1)N1CC2(CC(c3ccc(C(F)(F)F)nc3)C2)C1
E. Cn1cc(S(=O)(=O)N2CC3(CN(C(=O)N4CC5(CC(n6cnc(C7CC7)n6)C5)C4)C3)C2)cn1
Prompt line: Order the items by recorded IC50; the first position goes to the largest value. Give the labels in the order specified.
Response line: C, E, D, A, B
(C: 4690 nM, E: 797 nM, D: 80.3 nM, A: 6.6 nM, B: 0.2 nM)
